Assay: Effect of filament density, poration energy and filament array size on PK profile (Examples 7-9)
Set-up: species or system guinea pigs
Settings: guinea pig, in vivo, topical or ocular, 2 mg, Table 15 # 3: 400 filaments/cm^2, 4 mJ/filament, area 1.0 cm^2; patch 2.00 mg Zolmitriptan
measured-attribute: Tmax (h)
Return type: number; implicit unit h.

Task: Which value of Tmax has been reported for CN(C)CCc1c[nH]c2ccc(C[C@H]3COC(=O)N3)cc12 in the records?
Output: 1.06

====

Experiment: in vivo
Settings: hairless, rat, topical or ocular, 3 mg
measured-attribute: Cmax (ng/mL)
Return type: number; implicit unit ng/mL.

Task: Which value of Cmax has been reported for CNS(=O)(=O)Cc1ccc2[nH]cc(CCN(C)C)c2c1 [Sumatriptan Succinate] in the records?
Output: 1040

====

Assay: Effect of filament density, poration energy and filament array size on PK profile (Examples 7-9)
Set-up: species or system guinea pigs
Conditions: guinea pig, in vivo, topical or ocular, 2 mg, Table 13 # 3: 400 filaments/cm^2, 3 mJ/filament, area 1.0 cm^2; patch 2.00 mg Zolmitriptan
measured-attribute: AUC (ng·h/mL)
Return type: number; implicit unit ng·h/mL.

Task: Which value of AUC has been reported for CN(C)CCc1c[nH]c2ccc(C[C@H]3COC(=O)N3)cc12 [Zolmitriptan] in the records?
Output: 1750

====

Experiment: Administration route study in guinea pigs (Example 5)
Assay type: in vivo
Conditions: guinea pig, blood, Group 3: 2 mg base/4 mL, oral route
measured-attribute: Cmax (ng/mL)
Return type: number; implicit unit ng/mL.

Task: Which value of Cmax has been reported for CN(C)CCc1c[nH]c2ccc(C[C@H]3COC(=O)N3)cc12 in the records?
Output: 25

====

Assay: Effect of filament density, poration energy and filament array size on PK profile (Examples 7-9)
Set-up: species or system guinea pigs
Conditions: guinea pig, in vivo, topical or ocular, 2 mg, Table 15 # 3: 400 filaments/cm^2, 4 mJ/filament, area 1.0 cm^2; patch 2.00 mg Zolmitriptan
measured-attribute: Cmax (ng/mL)
Return type: number; implicit unit ng/mL.

Task: Which value of Cmax has been reported for CN(C)CCc1c[nH]c2ccc(C[C@H]3COC(=O)N3)cc12 in the records?
Output: 896

====

Assay: Administration route study in hairless rats with Sumatriptan Succinate (Example 10)
Details: rat, in vivo, topical or ocular, 6 mg
measured-attribute: Tmax (h)
Return type: number; implicit unit h.

Task: Which value of Tmax has been reported for CNS(=O)(=O)Cc1ccc2[nH]cc(CCN(C)C)c2c1 [Sumatriptan Succinate] in the records?
Output: 1.3

====

Assay: Administration route study in hairless rats (Example 4)
Assay type: in vivo
Details: rat, blood, Group 3: 2 mg zolmitriptan, intravenous injection
measured-attribute: AUC
Answer as a quantity: numeral, then unit.

Task: Which value of AUC has been reported for CN(C)CCc1c[nH]c2ccc(C[C@H]3COC(=O)N3)cc12 in the records?
Output: 2000 ng·h/mL

====

Test: Effect of filament density, poration energy and filament array size on PK profile (Examples 7-9)
Design: species or system guinea pigs
Details: guinea pig, in vivo, topical or ocular, 4 mg, Table 17 # 4: dose 4.00 mg, 4 mJ/filament, filament array area 1.5 cm^2, 400 filaments/cm^2
measured-attribute: Cmax (ng/mL)
Return type: number; implicit unit ng/mL.

Task: Which value of Cmax has been reported for CN(C)CCc1c[nH]c2ccc(C[C@H]3COC(=O)N3)cc12 in the records?
Output: 1310
